Entry source: patent US20120329787A1

Test system: Rhizoctonia solani
Test: Test D: turf brown patch, spray on creeping bent grass seedlings the day before inoculation
Format: in vivo
Conditions: 200 ppm test suspension
From the text: General protocol for preparing test suspensions for Tests A-I: the test compounds were first dissolved in acetone in an amount equal to 3% of the final volume and then suspended at the desired concentration (in ppm) in acetone and purified water (50/50 mix by volume) containing 250 ppm of the surfactant Trem® 014 (polyhydric alcohol esters). […]
metric: Test D rating (100 = 100% disease control, 0 = no disease control)

List reported Test D rating (100 = 100% disease control, 0 = no disease control) for each of these compounds:
1. Cc1noc(=O)c(-c2c(F)ccc(F)c2F)c1-c1ccc(Cl)cc1
2. Cc1noc(=O)c(-c2c(F)cccc2F)c1-c1ccc(Br)cc1
3. Cc1noc(=O)c(-c2c(F)cccc2Cl)c1-c1ccc(Cl)cc1

Reply:
1. 0%
2. 0%
3. 52%

Value sought for every listed compound: Test D rating (100 = 100% disease control, 0 = no disease control).
1. Cc1noc(=O)c(-c2c(F)cccc2F)c1-c1ccc(Cl)cc1
2. Cc1noc(=O)c(-c2ccc(Cl)cc2)c1-c1c(F)cccc1F
3. Cc1noc(=O)c(-c2c(F)cc(F)cc2F)c1-c1ccc(F)cc1
4. Cc1noc(=O)c(-c2c(F)cc(F)cc2F)c1-c1ccc(Cl)c(F)c1
5. Cc1ccc(-c2c(C)noc(=O)c2-c2c(F)cc(F)cc2F)cc1
6. Cc1noc(=O)c(-c2c(F)cc(F)cc2F)c1-c1ccc(C(F)(F)F)cc1

Reply:
["75%", "0%", "26%", "0%", "99%", "0%"]

====

Tested on: Septoria nodorum
Experiment: Test E: Septoria glume blotch, spray on wheat seedlings the day before inoculation
Format: in vivo
Conditions: Parastagonospora nodorum, 264 h, 200 ppm test suspension, read-out: Test E rating (100 = 100% disease control, 0 = no disease control)
metric: pest or weed control at 200 ppm (%)
One number for each entry, in %.

Below, each entry is followed by its recorded pest or weed control at 200 ppm result.
[[record]]
compound = "COc1cc(OC)c(Cl)c(-c2c(-c3ccc(F)cc3Cl)c(C)oc(=O)c2C)c1 [Compound 54]"
metric = "pest or weed control at 200 ppm"
recorded_result = 100

[[record]]
compound = "COc1cc(OC)cc(-c2c(C)oc(=O)c(C)c2-c2ccc(F)cc2F)c1 [Compound 42]"
metric = "pest or weed control at 200 ppm"
recorded_result = 0

[[record]]
compound = "COc1cc(OC)cc(-c2c(-c3ccc(F)cc3F)c(C)oc(=O)c2C)c1 [Compound 48]"
metric = "pest or weed control at 200 ppm"
recorded_result = 99

[[record]]
compound = "COc1cc(OC)cc(-c2c(-c3c(F)cc(F)cc3F)c(C)oc(=O)c2C)c1 [Compound 55]"
metric = "pest or weed control at 200 ppm"
recorded_result = 99


Your task in this section: give pest or weed control at 200 ppm for each listed record.
1. Cc1oc(=O)c(C)c(-c2ccc(F)cc2F)c1Br [Compound 41]
2. COc1cc(OC)cc(-c2c(-c3ccccc3F)noc(=O)c2-c2c(F)cc(F)cc2F)c1 [Compound 23]
3. COc1cc(OC)c(Cl)c(-c2c(C)noc(=O)c2-c2c(F)cc(F)cc2F)c1 [Compound 25]

Reply:
[0, 95, 0]
